Data origin, for the record: ChEMBL document CHEMBL5543068

assay: Cytotoxicity against human HL7702 cells assessed as reduction in cell viability incubated for 48 hrs by MTT assay; assay type: toxicity, cell-based; conditions: HL7702 (L02) cells
Lab note - cut at 5 µM for IC50 at 48 h: TRUE if strictly below, FALSE if not.

Query: Take the compound COc1ccc2cc3[n+](cc2c1OC)CCc1cc2c(cc1-3)OCO2 [BERBERINE CHLORIDE] and say whether its IC50 at 48 h is less than 5 µM.
Response: FALSE

Query: Take the compound "CCCCCCCCCCc1c2[n+](cc3c(OC)c(OC)ccc13)CCc1cc3c(cc1-2)OCO3" and say whether its IC50 at 48 h is less than 5 µM.
Response: TRUE

Query: Take the compound "C=CCc1ccc(OC)c(-c2ccc(OCCCCCCCCCCOC(=O)Cc3c4[n+](cc5c(OC)c(OC)ccc35)CCc3cc5c(cc3-4)OCO5)c(CC=C)c2)c1" and say whether its IC50 at 48 h is less than 5 µM.
Response: TRUE

Query: Take the compound "CCCCCCCCc1c2[n+](cc3c(OC)c(OC)ccc13)CCc1cc3c(cc1-2)OCO3" and say whether its IC50 at 48 h is less than 5 µM.
Response: FALSE

Query: Take the compound "CCCCCCCCCCOC(=O)Cc1c2[n+](cc3c(OC)c(OC)ccc13)CCc1cc3c(cc1-2)OCO3" and say whether its IC50 at 48 h is less than 5 µM.
Response: TRUE

Query: Take the compound "C=CCc1ccc(OCCC)c(-c2ccc(OCCCCCCOC(=O)Cc3c4[n+](cc5c(OC)c(OC)ccc35)CCc3cc5c(cc3-4)OCO5)c(CC=C)c2)c1" and say whether its IC50 at 48 h is less than 5 µM.
Response: TRUE

Query: Take the compound "C=CCc1ccc(OC)c(-c2ccc(OCCC[n+]3ccc(/C=C/c4c[nH]c5ccccc45)cc3)c(CC=C)c2)c1" and say whether its IC50 at 48 h is less than 5 µM.
Response: FALSE

Query: Take the compound "C[n+]1ccc(/C=C/c2c[nH]c3ccccc23)cc1" and say whether its IC50 at 48 h is less than 5 µM.
Response: FALSE

Query: Take the compound C=CCc1ccc(O)c(-c2ccc(O)c(CC=C)c2)c1 [HONOKIOL] and say whether its IC50 at 48 h is less than 5 µM.
Response: FALSE

Query: Take the compound "C=CCc1ccc(OC)c(-c2ccc(OCCCCCC[n+]3ccc(/C=C/c4c[nH]c5ccccc45)cc3)c(CC=C)c2)c1" and say whether its IC50 at 48 h is less than 5 µM.
Response: TRUE

Query: Take the compound "C=CCc1ccc(OCCC[n+]2ccc(/C=C/c3c[nH]c4ccccc34)cc2)c(-c2ccc(OCCC)c(CC=C)c2)c1" and say whether its IC50 at 48 h is less than 5 µM.
Response: TRUE

Query: Take the compound "C=CCc1ccc(OCCCCCCOC(=O)Cc2c3[n+](cc4c(OC)c(OC)ccc24)CCc2cc4c(cc2-3)OCO4)c(-c2ccc(OC)c(CC=C)c2)c1" and say whether its IC50 at 48 h is less than 5 µM.
Response: FALSE

Query: Take the compound "C=CCc1ccc(OCCCOC(=O)Cc2c3[n+](cc4c(OC)c(OC)ccc24)CCc2cc4c(cc2-3)OCO4)c(-c2ccc(OCCC)c(CC=C)c2)c1" and say whether its IC50 at 48 h is less than 5 µM.
Response: TRUE

Query: Take the compound "C=CCc1ccc(OC)c(-c2ccc(OCCCOC(=O)Cc3c4[n+](cc5c(OC)c(OC)ccc35)CCc3cc5c(cc3-4)OCO5)c(CC=C)c2)c1" and say whether its IC50 at 48 h is less than 5 µM.
Response: TRUE
